assay: Serum stability test in mouse serum; format: in vitro ADME; conditions: both sexes, pH 7.4, two hours, read-out: Serum stability t1/2 (Mouse)
Positions of bridges follow the written chain, without caps; N, C: chain ends. Non-standard residues stand in square brackets, D forms with d. Residues, ends and D or L forms follow the SMILES beside them. *: point of attachment. NMeF = CN[C@@H](Cc1ccccc1)C(=O)O; NMeI = CC[C@H](C)[C@H](NC)C(=O)O; NMeL = CN[C@@H](CC(C)C)C(=O)O; NMeA = CN[C@@H](C)C(=O)O; Piperidide = C1CCN(*)CC1; Sar = CNCC(=O)O; tBu = CC(C)(C)*
metric: half-life at 2 uM

In one line, give reported half-life at 2 uM of the entry CC[C@H](C)[C@H]1C(=O)N[C@H](C(=O)N2CCCCC2)CSCC(=O)N(C)[C@@H](C)C(=O)N(C)[C@@H](Cc2ccccc2)C(=O)N(C)[C@@H](CC(C)C)C(=O)N[C@@H]([C@@H](C)O)C(=O)N(C)CC(=O)N(C)[C@@H](CC(C)C)C(=O)N[C@@H](COC(C)(C)C)C(=O)N1C [Compound P-109] ({CH2CO}-[NMeA][NMeF][NMeL]T[Sar][NMeL]S(tBu)[NMeI]C-Piperidide; thioether N-9) .
> 60 h

* * *

test: PAMPA (parallel artificial membrane permeability assay); assay type: in vitro ADME; details: PAMPA; membrane permeation rate (Pe); 50 mM MOPSO buffer pH 6.5 with 5.0% glycocholic acid, 37° C., 18 hours; read-out: iPAMPA Pe
Starred links: 1 amine or outer side, 2 acyl side, 3 side chain; linkers in the order of their positions; H or OH if unused. Positions of bridges follow the written chain, without caps; N, C: chain ends. Non-standard residues stand in square brackets, D forms with d. Residues, ends and D or L forms follow the SMILES beside them. *: point of attachment. Phe(3-(CH2)4CO) = O=C([C@H](Cc1cccc(CCCCC(=O)[*:3])c1)N[*:1])[*:2]; NMeF = CN[C@@H](Cc1ccccc1)C(=O)O; NMeGABA = CN(CCCC(=O)[*:2])[*:1]; NMeI = CC[C@H](C)[C@H](NC)C(=O)O; NMeL = CN[C@@H](CC(C)C)C(=O)O; NMeA = CN[C@@H](C)C(=O)O; Piperidide = C1CCN(*)CC1; Sar = CNCC(=O)O; tBu = CC(C)(C)*
Would you mind telling me the reported Papp at 18 hours, 50 µM of each entry?
One number for each entry, in ×10⁻⁶ cm/s.

* CC(C)C[C@H]1C(=O)N(C)CC(=O)N(C)[C@@H](Cc2ccccc2)C(=O)N[C@@H](COC(C)(C)C)C(=O)N[C@H](C(=O)N2CCCCC2)CC(=O)N(C)CCCC(=O)N[C@@H]([C@@H](C)O)C(=O)N1C [DP-534] ([NMeGABA]T[NMeL][Sar][NMeF]S(tBu)D-Piperidide; lactam N-7) | 6.3

For the next question, use this molecule.
In one line, give reported Papp at 18 hours, 50 µM of the entry CC[C@H](C)[C@H]1C(=O)N(C)[C@@H](CC(C)C)C(=O)N[C@H](C(=O)N2CCCCC2)Cc2cccc(c2)CCCCC(=O)N[C@@H]([C@@H](C)O)C(=O)N(C)[C@@H](C)C(=O)N(C)[C@@H](Cc2ccccc2)C(=O)N(C)[C@@H](Cc2ccccc2)C(=O)N(C)[C@@H](CC(C)C)C(=O)NCC(=O)N1C [DP-840] (T[NMeA][NMeF][NMeF][NMeL]G[NMeI][NMeL][Phe(3-(CH2)4CO)]-Piperidide; lactam N-9) .
64

* * *

experiment: Metabolic stability in human hepatic microsome; assay type: in vitro ADME; settings: microsomes, pH 7.4; human hepatic microsome, NADPH(+); read-out: CL NADPH(+)
Positions of bridges follow the written chain, without caps; N, C: chain ends. Non-standard residues stand in square brackets, D forms with d. Residues, ends and D or L forms follow the SMILES beside them. *: point of attachment. NMeF = CN[C@@H](Cc1ccccc1)C(=O)O; NMeL = CN[C@@H](CC(C)C)C(=O)O; NMeA = CN[C@@H](C)C(=O)O; Piperidide = C1CCN(*)CC1
metric: microsomal CLint at 1 uM (µL/min/mg)
Answers are plain numbers, in µL/min/mg.

In one line, give reported microsomal CLint at 1 uM of the entry CC(C)C[C@@H]1NC(=O)[C@H](CC(C)C)N(C)C(=O)[C@H](C)N(C)C(=O)C[C@@H](C(=O)N(C)[C@@H](Cc2ccccc2)C(=O)N[C@@H](C)C(=O)N2CCCCC2)NC(=O)[C@H](CC(C)C)N(C)C(=O)[C@H](Cc2ccccc2)NC(=O)[C@H](Cc2ccccc2)N(C)C(=O)[C@H](C)NC(=O)[C@H]([C@@H](C)O)NC(=O)[C@H](CC(C)C)N(C)C1=O [DP-350] ([NMeA][NMeL]L[NMeL]TA[NMeF]F[NMeL]D[NMeF]A-Piperidide; lactam N-10) .
29

* * *

assay: PAMPA (parallel artificial membrane permeability assay); type: in vitro ADME; conditions: PAMPA; membrane permeation rate (Pe); 50 mM MOPSO buffer pH 6.5 with 5.0% glycocholic acid, 37° C., 18 hours; read-out: iPAMPA Pe
Starred links: 1 amine or outer side, 2 acyl side, 3 side chain; linkers in the order of their positions; H or OH if unused. Positions of bridges follow the written chain, without caps; N, C: chain ends. Non-standard residues stand in square brackets, D forms with d. Residues, ends and D or L forms follow the SMILES beside them. *: point of attachment. Phe(4-(CH2)5CO) = O=C([C@H](Cc1ccc(CCCCCC(=O)[*:3])cc1)N[*:1])[*:2]; Phe(4-CF3) = N[C@@H](Cc1ccc(C(F)(F)F)cc1)C(=O)O; NMePhe(3-Cl) = CN[C@@H](Cc1cccc(Cl)c1)C(=O)O; NMeF = CN[C@@H](Cc1ccccc1)C(=O)O; NMeβAla = CN(CCC(=O)[*:2])[*:1]; NMeL = CN[C@@H](CC(C)C)C(=O)O; Phg = N[C@H](C(=O)O)c1ccccc1; NMeV = CN[C@H](C(=O)O)C(C)C; NMeA = CN[C@@H](C)C(=O)O; Piperidide = C1CCN(*)CC1; dNMeA = CN[C@H](C)C(=O)O; β3hA = C[C@H](N)CC(=O)O; Sar = CNCC(=O)O; tBu = CC(C)(C)*
metric: Papp at 18 hours, 50 µM (×10⁻⁶ cm/s)
Numbers only, in ×10⁻⁶ cm/s.

- CC(C)C[C@@H]1NC(=O)[C@@H](C(C)C)NC(=O)C[C@H](C)NC(=O)[C@H](CC(C)C)N(C)C(=O)[C@H](Cc2cccc(Cl)c2)N(C)C(=O)[C@H](CC(C)C)N(C)C(=O)[C@H](Cc2ccc(C(F)(F)F)cc2)NC(=O)[C@H](C)N(C)C(=O)[C@H]([C@@H](C)O)NC1=O [DP-792] (cyclo(LT[NMeA][Phe(4-CF3)][NMeL][NMePhe(3-Cl)][NMeL][β3hA][dV])): 33
- CC(C)C[C@H]1C(=O)N(C)[C@@H](Cc2ccccc2)C(=O)N(C)[C@@H](CC(C)C)C(=O)N[C@H](C(=O)N2CCCCC2)CC(=O)N[C@H](C)C(=O)N[C@@H](C)C(=O)N[C@@H]([C@@H](C)O)C(=O)N(C)[C@@H](C)C(=O)N[C@@H](Cc2ccccc2)C(=O)N1C [DP-263] ([dA]AT[NMeA]F[NMeL][NMeF][NMeL]D-Piperidide; lactam N-9): 34
- CC[C@H](C)[C@@H]1NC(=O)[C@H](Cc2ccccc2)N(C)C(=O)CCCCCc2ccc(cc2)C[C@@H](C(=O)N2CCCCC2)NC(=O)[C@H](C(C)C)N(C)C(=O)[C@H](Cc2ccccc2)N(C)C(=O)[C@H](COC(C)(C)C)NC(=O)[C@H](CC(C)C)N(C)C(=O)CN(C)C(=O)[C@H]([C@@H](C)O)NC(=O)[C@H](CC(C)C)N(C)C1=O [DP-861] ([NMeF]I[NMeL]T[Sar][NMeL]S(tBu)[NMeF][NMeV][Phe(4-(CH2)5CO)]-Piperidide; lactam N-10): 2.9
- CC[C@H](C)[C@@H]1NC(=O)[C@H](C)NC(=O)C[C@@H](C(=O)N(C)[C@@H](Cc2ccccc2)C(=O)N[C@@H](C)C(=O)N2CCCCC2)NC(=O)[C@H](Cc2ccccc2)N(C)C(=O)[C@H](CC(C)C)N(C)C(=O)[C@H](C)N(C)C(=O)[C@H]([C@@H](C)O)NC(=O)[C@H](Cc2ccccc2)N(C)C(=O)[C@H](CC(C)C)N(C)C(=O)[C@H](C)N(C)C(=O)[C@H](CC(C)C)N(C)C1=O [DP-178] (AI[NMeL][NMeA][NMeL][NMeF]T[NMeA][NMeL][NMeF]D[NMeF]A-Piperidide; lactam N-11): 1

Batch: Papp at 18 hours, 50 µM for all items listed.
1. CC[C@H](C)[C@@H]1NC(=O)[C@H](C)N(C)C(=O)[C@H]([C@@H](C)O)NC(=O)[C@H](CC(C)C)N(C)C(=O)[C@H](Cc2ccccc2)NC(=O)[C@H](C(C)C)N(C)C(=O)[C@@H](C)N(C)C(=O)C[C@@H](C(=O)N(C)[C@@H](Cc2ccccc2)C(=O)N[C@@H](C)C(=O)N2CCCCC2)NC(=O)[C@H](C)N(C)C(=O)[C@H](CC(C)C)N(C)C1=O [DP-453] ([dNMeA][NMeV]F[NMeL]T[NMeA]I[NMeL][NMeA]D[NMeF]A-Piperidide; lactam N-10)
2. CC[C@H](C)[C@@H]1NC(=O)[C@H](Cc2ccccc2)NC(=O)[C@H](Cc2ccccc2)N(C)C(=O)CCN(C)C(=O)C[C@@H](C(=O)N2CCCCC2)NC(=O)[C@H](C)NC(=O)[C@H](CC(C)C)N(C)C(=O)[C@H](CC(C)C)N(C)C(=O)CN(C)C(=O)[C@H]([C@@H](C)O)NC(=O)[C@H](C(C)C)N(C)C(=O)[C@@H]2CCCN2C1=O [DP-134] ([NMeβAla][NMeF]FIP[NMeV]T[Sar][NMeL][NMeL]AD-Piperidide; lactam N-12)
3. CC[C@H](C)[C@@H]1NC(=O)[C@H](CC(C)C)N(C)C(=O)CN(C)C(=O)[C@H]([C@@H](C)O)NC(=O)[C@H](Cc2ccccc2)N(C)C(=O)[C@H](CC(C)C)N(C)C(=O)[C@H](C)N(C)C(=O)C[C@@H](C(=O)N2CCCCC2)NC(=O)[C@H](CC(C)C)N(C)C1=O [DP-342] ([NMeA][NMeL][NMeF]T[Sar][NMeL]I[NMeL]D-Piperidide; lactam N-9)
4. CC[C@H](C)[C@@H]1NC(=O)[C@H](CC(C)C)N(C)C(=O)[C@H]([C@@H](C)O)NC(=O)[C@H](CC(C)C)N(C)C(=O)[C@H](C(C)C)NC(=O)[C@H](Cc2ccccc2)N(C)C(=O)CCN(C)C(=O)C[C@@H](C(=O)N2CCC[C@H]2C(=O)N[C@H](C(=O)N(C)[C@@H](Cc2cccc(Cl)c2)C(=O)N(C)[C@@H](Cc2ccccc2)C(=O)N[C@H](C(=O)N2CCCCC2)[C@@H](C)CC)C(C)C)NC1=O [DP-926] ([NMeβAla][NMeF]V[NMeL]T[NMeL]IDPV[NMePhe(3-Cl)][NMeF]I-Piperidide; lactam N-8)
5. CC(C)C[C@H]1C(=O)N[C@@H](C)C(=O)N(C)[C@@H](Cc2ccccc2)C(=O)N(C)[C@@H](C)C(=O)N(C)[C@@H](Cc2ccccc2)C(=O)N[C@@H]([C@@H](C)O)C(=O)N(C)[C@@H](C)C(=O)N[C@H](C(=O)N2CCCCC2)CC(=O)N(C)[C@H](C)C(=O)N(C)[C@@H](C)C(=O)N1C [DP-341] ([dNMeA][NMeA][NMeL]A[NMeF][NMeA][NMeF]T[NMeA]D-Piperidide; lactam N-10)
6. CC(C)C[C@@H]1NC(=O)[C@H](CC(C)C)NC(=O)[C@H](C)N(C)C(=O)C[C@@H](C(=O)N2CCCCC2)NC(=O)[C@H](C(C)C)N(C)C(=O)[C@H](CC(C)C)NC(=O)[C@H](Cc2ccccc2)NC(=O)[C@H]([C@@H](C)O)NC(=O)CN(C)C(=O)[C@H](CC(C)C)NC(=O)[C@H](c2ccccc2)NC1=O [DP-561] ([NMeA]LL[Phg]L[Sar]TFL[NMeV]D-Piperidide; lactam N-11)

25
13
33
0.1
9.5
24

The values you see were collected from patent US9409952B2.
